assayed-system: human muscarinic acetylcholine M3 receptor (Homo sapiens, UniProt P20309)
Construct: expressed in transfected cells; host or cells: CHO-K1 (Chinese Hamster Ovary) cell membranes
Sequence (P20309 whole entry): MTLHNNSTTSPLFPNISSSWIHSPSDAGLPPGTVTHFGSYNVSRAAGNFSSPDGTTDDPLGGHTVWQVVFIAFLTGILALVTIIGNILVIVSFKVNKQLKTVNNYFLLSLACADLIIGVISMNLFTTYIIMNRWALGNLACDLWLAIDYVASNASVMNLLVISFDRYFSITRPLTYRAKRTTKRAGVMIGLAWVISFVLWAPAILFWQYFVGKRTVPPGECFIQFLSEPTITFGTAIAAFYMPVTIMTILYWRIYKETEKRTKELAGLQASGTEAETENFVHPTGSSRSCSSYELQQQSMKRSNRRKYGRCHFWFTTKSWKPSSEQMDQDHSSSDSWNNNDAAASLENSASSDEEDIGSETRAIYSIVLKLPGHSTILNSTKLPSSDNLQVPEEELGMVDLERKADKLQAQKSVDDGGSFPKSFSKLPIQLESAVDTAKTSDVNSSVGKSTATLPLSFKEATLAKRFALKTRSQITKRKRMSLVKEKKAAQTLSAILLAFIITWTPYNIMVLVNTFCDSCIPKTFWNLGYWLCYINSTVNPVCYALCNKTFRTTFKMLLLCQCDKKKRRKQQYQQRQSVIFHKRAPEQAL
experimental-details: biochemical
Assay type: binding
applied-conditions: M3 binding IC50
pIC50: −log10 of the molar value. Where a name gives a salt, the structure may show the parent alone.
measurement-type: pIC50

Reported pIC50 ( Cc1cccc(NC(=O)C[N+]23CCC(CC2)[C@@H](OC(=O)C2(c4ccccc4)CCCCCC2)C3)n1 ) = > 8.70

Given item COc1ccc(COCC[N+]23CCC(CC2)[C@@H](OC(=O)C2(c4ccccc4)CCCCCC2)C3)cc1 [Example 36, formate] , the value recorded as its pIC50 is 8.00 to 8.70

Measured pIC50, O=C(C[N+]12CCC(CC1)[C@@H](OC(=O)C1(c3ccccc3)CCCCCC1)C2)Nc1ccncn1 : > 8.70

Value of pIC50 reported for the compound O=C(C[N+]12CCC(CC1)[C@@H](OC(=O)C1(c3ccccc3)CCCCCC1)C2)NCCOc1cccc(F)c1 is 8.00 to 8.70

###

assayed-system: human muscarinic acetylcholine M3 receptor (Homo sapiens, UniProt P20309)
Construct: expressed in transfected cells; host or cells: CHO-K1 (Chinese Hamster Ovary) cell membranes
experimental-details: biochemical
Assay type: binding
applied-conditions: M3 binding IC50
Structures can show the parent of a compound that is named as a salt.
measurement-type: IC50

Form field IC50, entry O=C(C[N+]12CCC(CC1)[C@@H](OC(=O)C1(c3cccs3)CCCCCC1)C2)Nc1cnccn1 [Example 11] : < 2 nM

Lab book: IC50 of Cc1cnc(NC(=O)C[N+]23CCC(CC2)[C@@H](OC(=O)C2(c4cccs4)CCCCCC2)C3)cn1 [Example 9] noted as < 2 nM

Record summary for Cc1cccc(NC(=O)C[N+]23CCC(CC2)[C@@H](OC(=O)C2(c4ccccc4)CCCCCC2)C3)c1 [Example 47] : reported IC50 = 2 to 10 nM

IC50 in this record for O=C(C[N+]12CCC(CC1)[C@@H](OC(=O)C1(c3ccccc3)CCCCCC1)C2)Nc1ccncc1 [Example 16] : < 2 nM

IC50 recorded for this molecule, N#Cc1ccc(COCC[N+]23CCC(CC2)[C@@H](OC(=O)C2(c4ccccc4)CCCCCC2)C3)cc1 [Example 42] , is 2 to 10 nM

For Cc1ccc(NC(=O)C[N+]23CCC(CC2)[C@@H](OC(=O)C2(c4ccccc4)CCCCCC2)C3)cc1 [Example 46] the molecule record lists IC50 as 2 to 10 nM

The molecule O=C(O[C@H]1C[N+]2(CCOCCc3ccccc3)CCC1CC2)C1(c2ccccc2)CCCCCC1 [Example 37] showed IC50 equal to < 2 nM

The molecule identified as O=C(C[N+]12CCC(CC1)[C@@H](OC(=O)C1(c3ccccc3)CCCCCC1)C2)Nc1ccnnc1 [Example 27, formate] registered its IC50 at 2 to 10 nM

Reported IC50 ( O=C(C[N+]12CCC(CC1)[C@@H](OC(=O)C1(c3ccccc3)CCCCCC1)C2)Nc1ncns1 [Example 56] ) = 2 to 10 nM

Memo: O=C(C[N+]12CCC(CC1)[C@@H](OC(=O)C1(c3ccccc3)CCCCCC1)C2)Nc1cc(F)cc(F)c1 [Example 35] , reported IC50: 2 to 10 nM

Data point: Cc1ccccc1NC(=O)C[N+]12CCC(CC1)[C@@H](OC(=O)C1(c3ccccc3)CCCCCC1)C2 [Example 31] ; IC50 = 2 to 10 nM

Recorded result, O=C(O[C@H]1C[N+]2(CCCc3ccncc3)CCC1CC2)C1(c2ccccc2)CCCCCC1 [Example 61] , IC50: < 2 nM

###

Answer each item with its documented IC50.
assayed-system: human muscarinic acetylcholine M3 receptor (Homo sapiens, UniProt P20309)
Construct: expressed in transfected cells; host or cells: CHO-K1 (Chinese Hamster Ovary) cell membranes
experimental-details: biochemical
Format: binding
applied-conditions: M3 binding IC50
Where a name gives a salt, the structure may show the parent alone.

Entry O=C(O[C@H]1C[N+]2(CCc3ccc4c(c3)CCO4)CCC1CC2)C1(c2ccccc2)CCCCCC1 [Example 25, formate] ; IC50 = < 2 nM

Form field IC50, entry Cc1ccc(NC(=O)C[N+]23CCC(CC2)[C@@H](OC(=O)C2(c4ccccc4)CCCCCC2)C3)nc1 : < 2 nM

The molecule identified as O=C(C[N+]12CCC(CC1)[C@@H](OC(=O)C1(c3ccccc3)CCCCCC1)C2)Nc1cncc(F)c1 registered its IC50 at 2 to 10 nM

IC50 measured on O=C(C[N+]12CCC(CC1)[C@@H](OC(=O)C1(c3ccccc3)CCCCCC1)C2)Nc1ccccc1 = < 2 nM

// IC50 value for O=C(C[N+]12CCC(CC1)[C@@H](OC(=O)C1(c3ccccc3)CCCCCC1)C2)Nc1ccc(Cl)cn1 : < 2 nM

For O=C(NCC[N+]12CCC(CC1)[C@@H](OC(=O)C1(c3ccccc3)CCCCCC1)C2)c1ccccn1 the molecule record lists IC50 as < 2 nM

According to the records, this molecule Cc1ccc(NC(=O)C[N+]23CCC(CC2)[C@@H](OC(=O)C2(c4ccccc4)CCCCCC2)C3)cn1 displays IC50 of < 2 nM

get_value(item= Cc1cc(NC(=O)C[N+]23CCC(CC2)[C@@H](OC(=O)C2(c4cccs4)CCCCCC2)C3)on1 , readout=IC50) returns 2 to 10 nM

The molecule identified as O=C(C[N+]12CCC(CC1)[C@@H](OC(=O)C1(c3ccccc3)CCCCCC1)C2)Nc1c(F)cccc1F registered its IC50 at < 2 nM

get_value(item= O=C(C[N+]12CCC(CC1)[C@@H](OC(=O)C1(c3ccccc3)CCCCCC1)C2)Nc1cncnc1 , readout=IC50) returns < 2 nM

Entry O=C(C[N+]12CCC(CC1)[C@@H](OC(=O)C1(c3ccccc3)CCCCCC1)C2)Nc1ncco1 ; IC50 = 2 to 10 nM

Per the records, this molecule ( O=C(C[N+]12CCC(CC1)[C@@H](OC(=O)C1(c3ccccc3)CCCCCC1)C2)Nc1ncccc1F ) has IC50 equal to 2 to 10 nM

Measured IC50 of O=C(O[C@H]1C[N+]2(CCOc3ccc(F)cc3)CCC1CC2)C1(c2ccccc2)CCCCCC1 [Example 26, formate] : < 2 nM

Notebook: Cc1ccnc(NC(=O)C[N+]23CCC(CC2)[C@@H](OC(=O)C2(c4ccccc4)CCCCCC2)C3)c1 , IC50 read as 2 to 10 nM
